Target: T1, mouse IL-2Rβ (mouse) (UniProt P16297)
T1 sequence (looked up): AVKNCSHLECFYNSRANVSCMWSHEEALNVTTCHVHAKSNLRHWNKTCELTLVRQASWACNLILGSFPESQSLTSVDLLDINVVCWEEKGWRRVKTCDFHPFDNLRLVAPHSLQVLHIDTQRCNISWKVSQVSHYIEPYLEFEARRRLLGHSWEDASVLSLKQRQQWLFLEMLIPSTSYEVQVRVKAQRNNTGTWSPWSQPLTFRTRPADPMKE
Test: P.E. binding ELISA on coated protein
Measurement type: P.E. binding ELISA OD (OD450 nm)

| Binder | Obs value |
| --- | --- |
| FJ1427 P035MP03D02 (VHH) VHH: QVQLQESGGGLVQTGGSLRLSCAVSGSRFISDVMGWYRQVPGKQRELVADMADGGSAKYADSVKGRFSILRDSVKNTVYLQMSSLKPEDTGIYYCKAGLWLAGRHSDYWGQGTQVTVSS | 0.048 |
| FJ1427_P035MP03F02 (VHH) VHH: QVQLVESGGGLVQPGGSLRLSCAASGFTFSNYAMSWVRQAPGKGLEWVSSITGAGRGTYYADSVKGRFTISRDNDKNTLYLQMNSLKPEDTAVYYCAKYDSSTYYPPTPARGIADRGQGIQVTVSS | 0.049 |
| FJ1427 P035MP02A12 (VHH) VHH: QVQLQESGGGLVQAGGSLRLSCAVSGRSFRNYVMGWFRQAPGREREIVAGITQFTSTTYYDDSVKGRFTISRDNAKNTVYLQMNSLKPEDTALYYCAADRSIKMTADWAYWGQGTQVTVSS | 0.047 |
| FJ1427_P035MP03B05 (VHH) VHH: EVQLVESGGGLVQAGGSLRLACALSGDVFVRYTMAWFRQAPGKEREFVASVTDSGRTTDYVASVQGRFTVSRDNNKNTVYLQMNSLKPEDTAVYYCAANTDYFQIRSLDRNTWGQGTQVTVSS | 0.05 |
